# System: human erythrocytes
# Format: cell-based
# Conditions used: pH 7.4
# Procedure: The lytic effect of selected peptides upon human erythrocytes was determined as described before. Briefly, cells were washed thoroughly in Tris buffer (10 mM Tris, 150 mM NaCl, pH 7.4). Suspensions with 2.5 × 10^8 cells/mL were incubated with peptides at a final concentration of 100 µM for 30 min at 37 °C. After centrifugation, 0.6% NH4OH was added to an aliquot of the supernatant and hemoglobin absorption (A) was measured at 540 nm (Jasco V-550). […]
Square brackets hold non-standard residues; d marks the D form. Peptide text beside a SMILES is read from it. * marks the point of attachment. NBD = O=[N+]([O-])c1ccc(*)c2nonc12; Dap = NC[C@H](N)C(=O)O
Test readout: Hemolysis at 100 µM (%)

{"columns": ["Compound", "Measured value"],
 "data": [
  ["NCCCC[C@@H]1NC(=O)[C@H](CCCCN)NC(=O)[C@H](Cc2c[nH]c3ccccc23)NC(=O)[C@H](Cc2ccccc2)NC(=O)[C@H](Cc2c[nH]c3ccccc23)NC(=O)[C@H](CCCCN)NC1=O [cKKK] (cyclo(KKKWFW))", 8],
  ["N=C(N)NCCC[C@@H]1NC(=O)[C@H](CCCCN)NC(=O)[C@H](CCCNC(=N)N)NC(=O)[C@H](Cc2c[nH]c3ccccc23)NC(=O)[C@H](Cc2ccccc2)NC(=O)[C@H](Cc2c[nH]c3ccccc23)NC1=O [cRKR] (cyclo(RKRWFW))", 4],
  ["N=C(N)NCCC[C@@H]1NC(=O)[C@H](CCCCN)NC(=O)[C@H](Cc2c[nH]c3ccccc23)NC(=O)[C@H](CNc2ccc([N+](=O)[O-])c3nonc23)NC(=O)[C@H](Cc2c[nH]c3ccccc23)NC(=O)[C@H](CCCCN)NC1=O [cR2[NBD]] (cyclo(KRKW[Dap](NBD)W))", 26]
]}

The measured values listed here are drawn from paper PMC3818835.
